Recorded pIC50 by entry
- TARGET_SYSTEM: glutathione S-transferase (GST)-fused full-length human Syk protein (Homo sapiens)
- Construct: (GST)-fused full-length human Syk protein; GST (glutathione S-transferase); purchased Carna Biosciences
- EXPERIMENT: Syk enzyme assay
- Format: biochemical
- RUN_CONDITIONS: Syk enzyme assay, Test Example 1; read-out: IC50 of Syk-inhibitory activity
pIC50: −log10 of the molar value.

# example entries with known answers
{"COMPOUND": "CC(C)(C)[C@@H](Nc1nc(Nc2ccc3ncccc3c2)c(C(N)=O)cc1F)C(N)=O [Example 012-037]", "pIC50": "7.00 to 7.30"}
{"COMPOUND": "Cc1cc(Nc2nc(N[C@H](CC3CC3)[C@H](C)N)c(F)cc2C(N)=O)cnc1C [Example 006-435]", "pIC50": "> 8.00"}
{"COMPOUND": "COCCn1nc(C)c2cc(Nc3nc(NC4CCCCC4N)c(F)cc3C(N)=O)ccc21 (stereo not shown) [Example 002-208]", "pIC50": "> 8.00"}
{"COMPOUND": "C[C@H](N)[C@@H](CC1CC1)Nc1nc(Nc2ccc3cnn(CC(F)F)c3c2)c(C(N)=O)cc1F [Example 006-438]", "pIC50": "7.30 to 8.00"}
{"COMPOUND": "COc1cc(Nc2nc(N[C@@H]3CCCC[C@@H]3N)c(F)cc2C(N)=O)c2cc[nH]c2n1 (relative stereo) [Example 004-065]", "pIC50": "> 8.00"}

*Q* Entry COc1cc(Nc2nc(NC3CN(C(=O)OCc4ccccc4)CCC3N)c(F)cc2C(N)=O)ccn1 (stereo not shown) [Example 006-529] : reported pIC50 = ?
*A* 6.00 to 7.00

*Q* Which value of pIC50 has been reported for CCn1ncc2cc(Nc3nc(N[C@H](CC4CC4)[C@H](C)N)c(F)cc3C(N)=O)ccc21 [Example 006-342] in the records?
*A* > 8.00
